// reported GI50 per item
- Test system: U-251
- method-description: NCI tumour cell line growth inhibition, 48 h
The source made the active and inactive calls. No stated cut-off is given here; in the data, active = GI50 up to about 1.1 µM and inactive = higher.

molecule	GI50
O=C(/C(Cl)=C/c1ccccc1)c1ccccc1	4.27 µM (inactive)
COC(=O)C1CCC(=O)N1C(c1cc(OC)c(OC)c(OC)c1)c1cccc2ccccc12 (stereo not given)	> 100 µM (inactive)
CC(=O)N1c2cc(/N=N/N(C)C)ccc2NC(=O)CC1C (stereo not given)	> 100 µM (inactive)
Cc1noc(NS(=O)(=O)c2ccc(NC(=O)c3ccc4[nH]c5ccccc5c(=O)c4c3)cc2)c1C	27.4 µM (inactive)
Cc1nc(NC(=S)NC(=O)c2ccc(Cl)c(Cl)c2)sc1C(=O)/C=C/c1ccccc1[N+](=O)[O-]	17.9 µM (inactive)
Cc1cc(C)n(C(=C(C(Cl)=C(Cl)Cl)[N+](=O)[O-])n2nc(C)cc2C)n1	3.44 µM (inactive)
COc1ccc(N2C(=O)C3c4[nH]c5ccccc5c4C4C(C)CCCC4C3C2=O)cc1 (stereo not given)	> 57.7 µM (inactive)
CC1CCCC(C(=O)CC2CC(=O)NC(=O)C2)C1=O (stereo not given)	> 100 µM (inactive)
CCOC(=O)C(=O)Nc1c(F)cc(F)cc1Br	> 100 µM (inactive)
COc1ccc(Cc2nc3cc(C(F)(F)F)ccc3n2C[C@@H]2CCCN3CCCCC23)cc1 (stereo not given in full)	13.2 µM (inactive)

---

- System: MDA-MB-435
- method-description: NCI tumour cell line growth inhibition, 48 h
Calls of active or inactive are those of the source. Rule as the data show it: active = GI50 up to about 1.1 µM and inactive = higher.
Outcomes: 1.0 for active, 0.0 for inactive

compound	system-tested	group-label
CC1(C)CC(=O)C2=C(C1)OC1=C(CC(C)(C)CC1=O)C2c1ccccc1[N+](=O)[O-] (stereo unspecified)	MDA-MB-435	0.0
COC(=O)c1scc(N)c1-n1ccc(=O)[nH]c1=O	MDA-MB-435	0.0
O=c1cc(N2CCCC2)[nH]c(=O)n1-c1ccc(F)cc1	MDA-MB-435	0.0
COc1ccc(C(=O)NC2=C(Cl)C(=O)c3ccccc3C2=O)cc1	MDA-MB-435	0.0
CCCCCNC1=CC(=O)c2ccccc2C1=O	MDA-MB-435	0.0
Cc1nn(C(=O)c2ccncc2)c2c1C(c1ccccc1[N+](=O)[O-])SC(=N)N2 (stereo unspecified)	MDA-MB-435	0.0
COc1cc2c3c(n(C)c(=O)c2cc1OC)-c1cc2c(cc1C3=O)OCO2	MDA-MB-435	0.0
O=C1c2cc(Cl)ccc2-n2cnnc2C2CSCN12 (stereo unspecified)	MDA-MB-435	0.0
Nc1ncnc2c1ncn2-c1ccc([N+](=O)[O-])cn1	MDA-MB-435	0.0
Oc1ccc2ccccc2c1/N=N\c1cccc2ccccc12	MDA-MB-435	0.0
Cc1cc(C)n(C(=C(C(Cl)=C(Cl)Cl)[N+](=O)[O-])n2nc(C)cc2C)n1	MDA-MB-435	0.0
O=S(=O)(O)c1c(Cl)c(Cl)c(O)c2ncccc12	MDA-MB-435	0.0
O=C(Nc1cccc(F)c1)c1cc2ccc(O)cc2o/c1=N\c1ccccc1F	MDA-MB-435	0.0
COC(=O)C(NC(=O)C12CCC(C)(C(=O)O1)C2(C)C)c1cc(C(C)(C)C)c(O)c(C(C)(C)C)c1 (stereo unspecified)	MDA-MB-435	0.0
O=C(/N=S(/NC(=O)c1ccccc1)C(Cl)(Cl)Cl)c1ccccc1 (stereo unspecified)	MDA-MB-435	0.0
COc1cc2cc(C(=O)N3C[C@H](CCl)c4c3cc(O)c3ccccc43)[nH]c2c(OC)c1OC	MDA-MB-435	1.0
CC(=O)NN(c1ccccc1)C1CCN(c2ccccc2)N1C(C)=O (stereo unspecified)	MDA-MB-435	0.0
COc1ccc2c(c1)CCc1cc(C(N)=O)c3nnnn3c1-2	MDA-MB-435	0.0
CCOC(=O)c1c[nH]c(C(=O)OCC)c1-c1cccn1-c1ccccc1	MDA-MB-435	0.0
Cn1c(=O)nc2n(CCO)c(-c3ccccc3)c(-c3ccccc3)nc-2c1=O	MDA-MB-435	0.0
CN(CCCN(C)CCc1ccc(Cl)c(Cl)c1)CCCN1CCCC1	MDA-MB-435	1.0
COc1ccc(N2C(=O)C3c4[nH]c5ccccc5c4C4C(C)CCCC4C3C2=O)cc1 (stereo unspecified)	MDA-MB-435	0.0
c1ccc(C(NC2=NCCO2)c2ccccc2)cc1	MDA-MB-435	0.0
CSc1ccc2c(c1)C(N1CCN(C)CC1)Cc1ccccc1S2 (stereo unspecified)	MDA-MB-435	0.0
COc1cc(O)cc2oc(-c3ccc(O)cc3)cc(=O)c12	MDA-MB-435	0.0
Cc1cnc(/N=c2\sc(C)cn2-c2ncc(C)s2)s1	MDA-MB-435	0.0
COc1cc2cc(C(=O)N3CC(CCl)c4c3cc(NC(=O)C(C)Nc3c([N+](=O)[O-])cc(C(=O)NCCN(C)C)cc3[N+](=O)[O-])c3ccccc43)[nH]c2c(OC)c1OC (stereo unspecified)	MDA-MB-435	1.0
CCCCC[C@@H]1OC(=O)[C@@]2(CC3c4ccccc4C2c2ccccc23)[C@H]1C(=O)OC	MDA-MB-435	0.0
C(=N\c1ccc(-c2nc3ccccc3s2)cc1)/c1cccs1	MDA-MB-435	0.0
CC(=O)N1c2cc(/N=N/N(C)C)ccc2NC(=O)CC1C (stereo unspecified)	MDA-MB-435	0.0
O=C1NC(=O)C(COCc2ccccc2)C2=C1SCCC2 (stereo unspecified)	MDA-MB-435	0.0

---

- Tested on: MOLT-4
- method-description: NCI tumour cell line growth inhibition, 48 h
Active and inactive are the calls of the source. Cut-off read from the data, not from the text of the source: active = GI50 up to about 1.1 µM and inactive = higher.
Classes used: active, inactive

compound	group-label
CCn1c2ccccc2c2c(-c3ccccc3)cc3c(c21)C(=O)N(c1ccccc1)C3=O	inactive
O=P1(O)c2ccccc2CSCc2ccccc21	inactive
COc1cc(/C=C2\C(=O)N(c3cccc(Cl)c3)C(c3ccccc3)S2(=O)=O)cc(OC)c1OC (centres undefined)	inactive
CC(=O)OCC1OC(OC2CC3C(C)(C)C(OC(C)=O)CC[C@]3(C)C3CCC45CC4(CC[C@H]5C(C)CC(O)C4OC4(C)C)[C@]23C)C(O)C(O)C1O (some centres undefined)	active
N#C/N=N/c1cc(Cl)c(/N=N/C#N)cc1Cl	inactive
O=C1CC(NC(=O)C(F)(F)F)c2c(Br)sc(N3CCNCC3)c21 (centres undefined)	inactive
Cc1ccc2[nH]c3c(c(=O)n(C)c(=O)n3C)c2c1	inactive
CCC(/C=C/C1OC(=O)C=CC1C)=C\C(C)C/C=C/C(C)=C/C(C)C(=O)C(C)C(O)C(C)C/C(C)=C/C(=O)O (centres undefined)	active
O=C(c1ccc(Cl)cc1Cl)N(C(=O)N1CCCCC1)c1ccccc1	inactive

---

Measured GI50 of individual entries
- Tested on: HL-60
- method-description: NCI tumour cell line growth inhibition, 48 h
Active and inactive are the calls of the source. Cut-off read from the data, not from the text of the source: active = GI50 up to about 1.1 µM and inactive = higher. Non-standard residues stand in square brackets, D forms with d. Residues, ends and D or L forms follow the SMILES beside them. Ava = NCCCCC(=O)O; Mpa = O=C(O)CCS

molecule	system-tested	GI50
Cc1ccc(Cl)c2c1NC(=O)/C2=N\Nc1ccccc1[N+](=O)[O-]	HL-60	25.5 µM (inactive)
O=c1oc2ccc3ccccc3c2cc1-c1cn2ccsc2n1	HL-60	17.8 µM (inactive)
COc1nc2c(c(=O)n1C)N=C(c1ccccc1)[C@H](C(CC(=O)c1ccccc1)c1ccccc1)C(c1ccccc1)N2 (stereo not given in full)	HL-60	38.4 µM (inactive)
COCC1N=C(c2cc(OC)c(OC)c(OC)c2-c2cc3c(cc2C2OCCCO2)OCO3)O[C@H]1c1ccccc1 (stereo not given in full)	HL-60	> 100 µM (inactive)
CO/N=C/c1c(-c2ccc(Cl)cc2)c(/C=N/OC)n2c1sc1ccccc12	HL-60	32 µM (inactive)
CCCCCCCCCCCCC(SCCNC(=O)CCNC(=O)C(O)C(C)(C)COP(=O)(O)OP(=O)(O)OCC1OC(n2cnc3c(N)ncnc32)C(O)C1OP(=O)(O)O)C(=O)NCC(N)=O (stereo not given)	HL-60	72.9 µM (inactive)
Cc1cc(N(CCC#N)CCC#N)ccc1/C=C/C(=O)Nc1cccc(Cl)c1	HL-60	51.3 µM (inactive)
CC(NC(=O)CCS)C(=O)NC(C)C(=O)NC(Cc1c[nH]c2ccccc12)C(=O)NC(Cc1c[nH]cn1)C(=O)NC(CO)C(=O)NC(Cc1c[nH]c2ccccc12)C(=O)NCCCCC(=O)NC(C)C(=O)NC(CCC(N)=O)C(=O)NC(CCCCN)C(=O)NC(C)C(=O)NC(CCCNC(=N)N)C(=O)NC(CCCCN)C(N)=O (stereo not given) ([Mpa]AAWHSW[Ava]AQKARK-NH2; configuration not given here)	HL-60	24.7 µM (inactive)
CC(=O)Oc1ccc2cc(Oc3ccc(Cl)c(Cl)c3)c(=O)oc2c1	HL-60	60.5 µM (inactive)
CS/C(=N/S(=O)(=O)c1ccc(Cl)cc1)NCCCN/C(=N\S(=O)(=O)c1ccc(Cl)cc1)SC	HL-60	8.38 µM (inactive)
CC(C)(C)n1c(=O)[nH]c(=O)n1C(C)(C)C	HL-60	> 100 µM (inactive)
O=C(O)C1CCCCN1C(=O)Cc1c[nH]c2ccccc12 (stereo not given)	HL-60	> 100 µM (inactive)
NC(CSS(=O)(=O)c1ccccc1)C(=O)O (stereo not given)	HL-60	> 10 µM (inactive)
Cc1nc2ccccc2n1C(=O)c1c(F)c(F)c(F)c(F)c1F	HL-60	4.49 µM (inactive)
COc1cccc(/N=N/C(=NNC(=O)c2ccc(C)cc2)c2ccc(N(C)C)cc2)c1	HL-60	> 100 µM (inactive)
CC(=O)Nn1c(Cc2ccc(Cl)cc2)nn(C)c1=O	HL-60	> 100 µM (inactive)
CC12OC1(C)C1C(=O)OCC1C2=O (stereo not given)	HL-60	20.6 µM (inactive)
CCOc1ccc(NC(=O)CC2SC(Nc3ccc(Cl)cc3)=NC2=O)cc1 (stereo not given)	HL-60	24.2 µM (inactive)
COc1cc2c(cc1OC)C(=O)N(c1ccc(O)cc1)C2	HL-60	> 100 µM (inactive)
COc1cc(/C=C2\C(=O)N(c3cccc(Cl)c3)C(c3ccccc3)S2(=O)=O)cc(OC)c1OC (stereo not given)	HL-60	36.4 µM (inactive)
